Values were extracted from the supplement of paper PMC10567573.

B1: ZNF511 (parent)
chain: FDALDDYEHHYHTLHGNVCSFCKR

- Variants of: B1
- test.protocol: protein stability index of a GFP-peptide fusion (GPS, HEK-293T) (PSI 1-6); higher = more stable;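 further: lentivirally expressed fusions sorted by FACS into six bins by GFP to DsRed ratio, PSI derived from sequencing read proportions per bin multiplied by bin number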
- measurement.conditions: c terminus: a fixed tail appended
Readings of protein stability index for the listed variants

Reported protein stability index of FDALDDYEHHYHTLHGNVCLFCKR [S20L] : 3.35

According to the records, this variant SDALDDYEHHYHTLHGNVCSFCKR [F1S] displays protein stability index of 4.51

The variant identified as FDALDDYEHDYHTLHGNVCSFCKR [H10D] registered its protein stability index at 3.85

Note to self: protein stability index recorded for ADALDDYEHHYHTLHGNVCSFCKR [F1A] was 4.38

protein stability index in this record for FDALDDYEHHYHTLHGNVCSFCGR [K23G] : 4.15

Record summary for FDALDDYEHCYHTLHGNVCSFCKR [H10C] : reported protein stability index = 4.7

New cases:
# variant FDALDDYEHHYHTLHGNVNSFCKR [C19N] ; its protein stability index = 3.13

// protein stability index lookup, variant = FDALDDYEHAYHTLHGNVCSFCKR [H10A] , result: 2.94

The variant listed as FDGLDDYEHHYHTLHGNVCSFCKR [A3G] has a reported protein stability index of 3.96

get_value(item= FDALDDYEHHYHTLHMNVCSFCKR [G16M] , readout=protein stability index) returns 3.15
